biological target: Histone-lysine N-methyltransferase SUV39H1 (Homo sapiens); assay: Inhibition of SUV39H1 (unknown origin) using biotin-labeled histone substrate assessed as residual activity at 50 uM in presence of [3H-Me]SAM by scintillation proximity assay relative to control
endpoint name: Activity (%)

- O=C(c1cccc(Br)c1)N1CCC[C@@H]2CNC[C@@H]21: 95
- CN1CCC2(CC1)CCN(C(=O)c1cccc(Br)c1)CC2: 102
- O=C(c1cccc(Br)c1)N1CC[C@@H]2[C@@H](CC3CCCCN32)C1 (stereo partly specified): 94
- CN1CCCC12CCCN(C(=O)c1cccc(Br)c1)C2 (stereo unspecified): 88
- CN1CCC2(CCCN2C(=O)c2cccc(Br)c2)CC1: 101
- C[N+]1(C)CCCCC12CCN(C(=O)c1cccc(Br)c1)CC2: 98
